Measured values drawn from PubChem BioAssay (NCATS) for this set.

target: Cytochrome P450 3A4 (Homo sapiens) (UniProt P08684); test: qHTS Assay for Inhibitors and Substrates of Cytochrome P450 3A4 (AID 884); details: recombinant CYP3A4, Luciferin-PPXE luminescence; series mostly up to 57.1 µM; also: nearly all actives have a fitted effect of over 50% in size
Sequence (P08684 whole entry, looked up): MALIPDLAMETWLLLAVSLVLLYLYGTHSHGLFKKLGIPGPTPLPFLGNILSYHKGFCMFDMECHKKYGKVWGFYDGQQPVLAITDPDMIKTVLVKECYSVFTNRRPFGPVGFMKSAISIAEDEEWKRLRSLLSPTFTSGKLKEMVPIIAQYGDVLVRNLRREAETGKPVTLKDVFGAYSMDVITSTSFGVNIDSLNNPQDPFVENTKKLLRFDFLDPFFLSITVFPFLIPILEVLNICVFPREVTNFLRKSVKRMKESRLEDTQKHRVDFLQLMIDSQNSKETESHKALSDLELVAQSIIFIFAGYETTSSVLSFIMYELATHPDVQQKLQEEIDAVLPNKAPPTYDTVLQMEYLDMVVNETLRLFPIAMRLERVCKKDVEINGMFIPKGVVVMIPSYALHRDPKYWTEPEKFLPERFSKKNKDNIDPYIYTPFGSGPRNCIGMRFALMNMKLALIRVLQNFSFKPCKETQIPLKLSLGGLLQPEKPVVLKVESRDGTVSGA
Inconclusive results are not listed. The source made the active and inactive calls. Calls follow the shape of the dose curve; as a rule, active = well fitted inhibition curve with a large enough effect; inconclusive = small, poorly fitted or top-dose-only effect; inactive = no such curve, though single readings can be large or run the other way.
Thanks in advance; please answer with one of these: T (active), F (inactive)

molecule="COc1ccc(-c2coc3cc(OC4OC(CO)C(O)C(O)C4O)cc(O)c3c2=O)cc1 (stereo unspecified)" group_label=F
molecule=C/C(=C\[C@@H](NP(=O)(c1ccccc1)c1ccccc1)c1ccccc1)CO[Si](c1ccccc1)(c1ccccc1)C(C)(C)C group_label=T
molecule=CNC(=O)[C@@]1(C)C=C[C@@H](Cc2ccccc2)N1C(C)=O group_label=F
molecule="COC(=O)C1=C(C)N(Cc2ccccc2)C2=C3C(=O)OCCC3[C@@](O)(C(=O)OC)C(=O)N2C1c1ccccc1 (stereo partly specified)" group_label=T

Assay outcome for COC(=O)CC1Oc2cc3oc4c5ccccc5oc(=O)c4c3cc2O1 (stereo unspecified) : what was it?
F

Now try COC(=O)c1ccc(C23CC4(C2)[C@H](CN(Cc2ccc(-c5ccccc5)cc2)[C@@H]4c2ccccc2)C3c2ccccc2)cc1 (stereo partly specified) .
F
